measured.on: human Protein Tyrosine Phosphatase Receptor Type C (PTPRC), PTPRC (gene 5788)
procedure.details: NVS_ENZ_hPTPRC: NovaScreen (NVS) Enzymatic Assay for human Protein Tyrosine Phosphatase Receptor Type C (PTPRC) (AID 2283212)
Inconclusive results are not listed. Activity calls are given as the source filed them. The calls were made as follows: active = hit-call score of the fitted dose curve at least 0.9, where 1 is the maximum; inconclusive = response in the unintended direction; inactive = score below 0.9.
parameter: AC50

[[record]]
structure_smiles = "COC(=O)c1ccccc1N"
parameter = "AC50"
value_observed = "inactive"

[[record]]
structure_smiles = "Nc1ccc(Cl)cc1N"
parameter = "AC50"
value_observed = "16.2 µM (active)"

[[record]]
structure_smiles = "C[C@]12C=CC3=C4CCC(=O)C=C4CC[C@H]3[C@@H]1CC[C@@H]2O"
parameter = "AC50"
value_observed = "9.63 µM (active)"

[[record]]
structure_smiles = "CN(C)C(=O)Nc1ccc(Cl)cc1"
parameter = "AC50"
value_observed = "inactive"


* * *

measured.on: human Thyroid hormone Receptor beta (TRb), THRB (gene 7068)
procedure.details: ATG_hTRb_XSP2: Attagene TRANS-FACTORIAL Multi-Species (XSP2) HepG2 Assay for human Thyroid hormone Receptor beta (TRb) (AID 2283840);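 also: actives raise reporter mRNA so potency reflects agonist-like gain of signal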
Results filed as inconclusive are left out. Calls of active or inactive are those of the source. Rule for the calls: active = hit-call score of the fitted dose curve at least 0.9, where 1 is the maximum; inconclusive = response in the unintended direction; inactive = score below 0.9.
The reply should be one of these categories: active, inactive

The following compounds have reported results that may help.
[[record]]
compound = "CCCCOC(=O)c1ccccc1C(=O)OCc1ccccc1"
measured_on = "human Thyroid hormone Receptor beta (TRb), THRB (gene 7068)"
group_label = "inactive"

[[record]]
compound = "O=[N+]([O-])c1ccc(Oc2ccc(Cl)cc2Cl)cc1"
measured_on = "human Thyroid hormone Receptor beta (TRb), THRB (gene 7068)"
group_label = "inactive"

[[record]]
compound = "CC(C)(C)C(O)(CCc1ccc(Cl)cc1)Cn1cncn1 (configuration not stated)"
measured_on = "human Thyroid hormone Receptor beta (TRb), THRB (gene 7068)"
group_label = "inactive"

[[record]]
compound = "C[C@]12C=CC3=C4CCC(=O)C=C4CC[C@H]3[C@@H]1CC[C@@H]2O"
measured_on = "human Thyroid hormone Receptor beta (TRb), THRB (gene 7068)"
group_label = "active"

[[record]]
compound = "CCCCCOC(=O)c1ccccc1C(=O)OCCCCC"
measured_on = "human Thyroid hormone Receptor beta (TRb), THRB (gene 7068)"
group_label = "inactive"

[[record]]
compound = "CCC[CH2][Sn]([Cl])([CH2]CCC)[CH2]CCC"
measured_on = "human Thyroid hormone Receptor beta (TRb), THRB (gene 7068)"
group_label = "active"


State the result this test recorded for Clc1ccc(C(c2ccc(Cl)cc2)C(Cl)Cl)cc1 .
inactive

* * *

Read-out: Glutathione S-Transferase (GSTA2), GSTA2 (gene 2939)
procedure.details: LTEA_HepaRG_GSTA2: Life Technologies and Expression Analysis (LTEA) Assay for Glutathione S-Transferase (GSTA2) using HepaRG (AID 2283497)
conditions: mRNA level, 48 h; actives raise or lower the signal
Calls of active or inactive are those of the source. How the source made its calls: active means hit-call score of the fitted dose curve at least 0.9, where 1 is the maximum; inactive means score below 0.9.
The reply should be one of these categories: active, inactive

The following molecules have reported results that may help.
[[record]]
molecule = "ClCCOCCCl"
group_label = "inactive"

[[record]]
molecule = "CC(C)(O)c1cnn2c(-c3ccc(F)c(-c4c(F)cccc4C#N)c3)cnc2n1"
group_label = "inactive"


State the result this test recorded for CCCCC(CC)COC(=O)c1ccc(C(=O)OCC(CC)CCCC)c(C(=O)OCC(CC)CCCC)c1 (stereo not given) .
inactive

State the result this test recorded for Cc1ccc(N)cc1 .
inactive

State the result this test recorded for CCC[CH2][Sn]([Cl])([CH2]CCC)[CH2]CCC .
active

State the result this test recorded for Nc1ccc([N+](=O)[O-])cc1 .
inactive

State the result this test recorded for C=CCc1ccc2c(c1)OCO2 .
inactive
